In this section, each of the binders is paired with its reported Kd.
SYSTEM: T1, Human 41BB antigen (BLI) (human, UniProt Q07011 24-183)
T1 construct: also called 41BB protein
T1 sequence (Q07011 24-183 limits assumed): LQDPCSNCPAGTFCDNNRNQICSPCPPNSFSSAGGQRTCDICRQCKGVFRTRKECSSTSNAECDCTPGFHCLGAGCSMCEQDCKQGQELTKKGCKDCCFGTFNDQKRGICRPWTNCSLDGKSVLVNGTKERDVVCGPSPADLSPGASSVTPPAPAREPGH
PROCEDURE SUMMARY: BLI, VHH-His on anti-His tips, human 41BB in solution;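 note: association tracked for 200 s, after which dissociation was followed in 1×PBS free of 41BB protein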
READOUT TYPE: Kd (nM)

binder="4-1BB-10 (VHH, not shown: small tags and cut ends) VHH: EVQLVESGGGLVQAGGSLRLSCAASGAIFSYNGMAWYRQAPGKQREFVAVITPDGTTKYGDSVKGRFTISRDITKNTVDLEMNSLKPEDTAVYTCAALRNSGSTSWGQGTQVTVSS" experimental_value=0.657
binder="4-1BB-1 (VHH, not shown: small tags and cut ends) VHH: QVQLVESGGGLVQAGGSLRLSCAASENIFSFNAMAWYRQAPGKQRELVALITGDGTTKYADSVKGRFTIARLNAKNTVNLEMNSLKPEDTAVYTCAALRNSDRTSWGQGTQVTVSS" experimental_value=3.17
binder="4-1BB-36 (VHH, not shown: small tags and cut ends) VHH: EVQLVESGGGLVQPGGSLRLSCAASRRTFSSYTAGWFRQAPGKEREFVASIRWISGTTTYADSVNGRFTISRDIAKNTVYLQMNSLKPDDTAVYYCAVDLSSDNDYDYWGQGTQVTVSS" experimental_value=29.2
binder="4-1BB-3 (VHH, not shown: small tags and cut ends) VHH: EVQLVESGGGLVQAGGSLRLSCAASGNIFSYNGMAWYRQAPGNQRELVAVVAIDGTAKYADTVKGRFTISRDNIKNTVNLEMNSLKPEDTAVYTCAALRNSGSTSWGQGTQVTVSS" experimental_value=1.82
binder="4-1BB-59 (VHH, not shown: small tags and cut ends) VHH: EVQLVESGGGLVQPGESLRLSCAASGDTVSGYVMLWWRQAPGKERELVAAISSVGYTYYTDSVKGRFTISRDNAKNTVYLQMNSLKPEDTAVYYCAADPASISTRSAYWGQGTQVTVSS" experimental_value=2.35
binder="4-1BB-56 (VHH, not shown: small tags and cut ends) VHH: QVQLVESGGGLVQTGGSLRLSCAASGRISTIDTMFWYRQTPGKERDWVAFIPKDGLPTYVDSVKGRFTVSRDNARNTVYLQMNGLKPEDTAVYYCAVDVQEDRMRTYWGQGTQVTVSS" experimental_value=0.781
binder="4-1BB-2 (VHH, not shown: small tags and cut ends) VHH: QVQLVESGGGLVQAGGSLRLSCAASGSIFSYNAMAWYRQAPGKQRELVALITSDRTTKYADSVKGRFTISRDDTKNTVDLEMNSLKPEDTAVYTCAALLNSARTSWGQGTQVTVSS" experimental_value=2.57
binder="4-1BB-9 (VHH, not shown: small tags and cut ends) VHH: QVQLVESGGGLVQAGGSLRLSCAASGSIFSYNAVAWYRQAPGKQRELVAVITSGGETTKYADSVKGRFTISRDITKNAVDLQMVSLKPEDTAVYTCAALRNSGSTSWGQGTQVTVSS" experimental_value=4.55
